- ASSAY SUMMARY: AUC (0 to infinity) in C57/BL6 mouse at 20 mg/kg, po by LC-MS method
- Format: ADME, organism-based
- Set-up: dose 20 mg/kg, route oral, time infinity
- MEASUREMENT PARAMETERS: in vivo
MEASURE NAME: AUC(0-inf) (µM·h)
Return type: number; implicit unit µM·h.

What value of AUC(0-inf) has been reported for the following compound? `Cc1noc(-c2nc(C)c3c(c2N)C(=O)N(Cc2cccc(Cl)c2)C3=O)n1`
0.133

---

- ASSAY SUMMARY: Oral bioavailability in C57/BL6 mouse at 20 mg/kg by LC-MS method
- Format: ADME, organism-based
- MEASUREMENT PARAMETERS: in vivo
MEASURE NAME: bioavailability (%)
Give the quantity in %, number only.

What measured bioavailability goes with `Cc1noc(-c2nc(C)c3c(c2N)C(=O)N(Cc2cccc(Cl)c2)C3=O)n1` ?
2

---

- ASSAY SUMMARY: Total clearance in anesthetized C57/BL6 mouse at 5 mg/kg, iv by LC-MS method
- Assay type: ADME, organism-based
- MEASUREMENT PARAMETERS: in vivo
MEASURE NAME: clearance (mL/min/kg)
The reply should contain only the number, in mL/min/kg.

Data request, read-out clearance, for `Cc1noc(-c2nc(C)c3c(c2N)C(=O)N(Cc2cccc(Cl)c2)C3=O)n1`
171

---

- ASSAY SUMMARY: Total clearance in anesthetized C57/BL6 mouse at 5 mg/kg, iv co-administered with amino-benzotriazole by LC-MS method
- Format: ADME, organism-based
- MEASUREMENT PARAMETERS: in vivo
MEASURE NAME: clearance (mL/min/kg)
Field: numeric (mL/min/kg). Do not append units.

Could you share which clearance value was measured for `Cc1noc(-c2nc(C)c3c(c2N)C(=O)N(Cc2cccc(Cl)c2)C3=O)n1` ?
94.5

---

- ASSAY SUMMARY: Metabolic stability in mouse liver microsomes assessed as residual compound at 0.1 uM after 30 mins by LC-MS/MS method in presence or absence of NADPH
- Format: ADME
- MEASUREMENT PARAMETERS: read-out: Stability
just bin them by remaining at 0.5 h, 0.1 µM: low value: < 50%; medium value: ≥ 50% and < 80%; high value: ≥ 80%

Below are worked cases with known answers.
>>> class_assignment("CCOC(=O)c1nc(C)c2c(c1N)C(=O)N(Cc1ccccc1)C2=O")
"low value"
>>> class_assignment("Cc1nc(-c2nc(C(F)(F)F)no2)c(N)c2c1C(=O)N(Cc1ccccc1)C2=O")
"low value"
>>> class_assignment("Cc1nc(C(=O)OC2CC2)c(N)c2c1C(=O)N(Cc1ccccc1)C2=O")
"low value"

Which class holds `Cc1nc(C(=O)N(C)C)c(N)c2c1C(=O)N(Cc1ccccc1)C2=O` ?
low value

Now consider `Cc1noc(-c2nc(C)c3c(c2N)C(=O)N(Cc2ccccc2)C3=O)n1` and answer again.
high value

Consider next the molecule `Cc1nc(C#N)c(N)c2c1C(=O)N(Cc1ccccc1)C2=O` in the same way.
high value

# repeat for `Cc1nc(C(=O)NC#N)c(N)c2c1C(=O)N(Cc1ccccc1)C2=O`
high value

Try this molecule too: COC(=O)c1nc(C)c2c(c1N)C(O)N(Cc1ccccc1)C2=O (stereo not drawn)
medium value

Next record, please: `Cc1nnc(-c2nc(C)c3c(c2N)C(=O)N(Cc2ccccc2)C3=O)o1`
medium value

What about this molecule? `Cc1nc(C(=O)NO)c(N)c2c1C(=O)N(Cc1ccccc1)C2=O`
medium value

Then what about the molecule CCOC(=O)c1nc(C)c2c(c1N)C(=O)N(Cc1ccccc1)C2O (stereo not drawn) ?
high value

Repeat with `CCCOC(=O)c1nc(C)c2c(c1N)C(=O)N(Cc1ccccc1)C2=O`
low value
